experiment: Cell toxicity (CC50), Table 3; assay type: cell-based; details: human, Huh7.5 cells
QUANTITY: CC50 (µM)
Reply with just the number (in µM).

Completed entries (count: 5):
{"COMPOUND": "COc1ccc(-c2sc(NC(=O)NC(C)(C)C)nc2C)cc1S(=O)(=O)Nc1ccc(O)cc1 [AB3835]", "CC50 [µM]": 48}
{"COMPOUND": "COc1ccc(-c2sc(NC(=O)CC3CCCCC3)nc2C)cc1S(=O)(=O)Nc1ccc(O)cc1 [AB3680]", "CC50 [µM]": 54}
{"COMPOUND": "COc1ccc(NS(=O)(=O)c2cc(-c3sc(NC4CCCCC4)nc3C)ccc2OC)c(C)c1.O=C(O)C(F)(F)F [AB4021]", "CC50 [µM]": 13}
{"COMPOUND": "COc1ccc(-c2sc(NC3CCCCC3)nc2C)cc1S(=O)(=O)Nc1ccc(Cl)cc1F.O=C(O)C(F)(F)F [AB4100]", "CC50 [µM]": 16.6}
{"COMPOUND": "COc1cc(C)c(NS(=O)(=O)c2cc(-c3sc(NC4CCCCC4)nc3C)ccc2OC)cn1 [AB3950]", "CC50 [µM]": 12}

For reference, reported CC50 for COc1ccc(-c2sc(NC3CCCCC3)nc2C)cc1S(=O)(=O)Nc1ccc(O)cc1 [AB3867] stands at 41

// CC50 lookup, compound = COc1ccc(-c2sc(NC(=O)CC3CCCC3)nc2C)cc1S(=O)(=O)Nc1cccc(O)c1 [AB4109] , result: 20.7

The compound COc1ccc(-c2sc(NC(=O)C3CCCC3)nc2C)cc1S(=O)(=O)Nc1cnc(Cl)c(C)c1.O=C(O)C(F)(F)F [AB3862] showed CC50 equal to 22

====

assay: Cell toxicity (CC50), Table 3; format: cell-based; conditions: human, Huh7.5 cells
QUANTITY: CC50 (µM)
Output spec: scalar in µM, unitless text.

Solved entries (count: 5):
{"COMPOUND": "COc1ccc(-c2sc(NC(=O)NCC(C)C)nc2C)cc1S(=O)(=O)Nc1ccc(O)cc1 [AB3832]", "CC50 (µM)": 46}
{"COMPOUND": "COc1ccc(-c2sc(NC3CCCCC3)nc2C)cc1S(=O)(=O)Nc1ccc(C)cc1 [AB4106]", "CC50 (µM)": 58.5}
{"COMPOUND": "COc1ccc(-c2sc(NC(=O)C3CCCC3)nc2C)cc1S(=O)(=O)Nc1cnc(F)cc1C [AB3664]", "CC50 (µM)": 58}
{"COMPOUND": "COc1ccc(-c2sc(NC(=O)CCC3CCCC3)nc2C)cc1S(=O)(=O)Nc1cccc(O)c1 [AB3837]", "CC50 (µM)": 22}
{"COMPOUND": "COc1ccc(NS(=O)(=O)c2cc(-c3sc(NC4CCCCC4)nc3C)ccc2OC)cn1 [AB3957]", "CC50 (µM)": 9}

Entry COc1ccc(-c2sc(NC3CCCCC3)nc2C)cc1S(=O)(=O)Nc1ccc(C)nc1.O=C(O)C(F)(F)F [AB4022] — recorded CC50 = 21

====

assay: Cytotoxicity CC50 in Huh7.5 cells; format: cell-based; conditions: human, Huh7.5 cells
QUANTITY: CC50 (µM)
Kindly provide the numeric value in µM only, without the unit symbol.

Measured CC50, COc1ccc(-c2sc(NC(C)=O)nc2C)cc1S(=O)(=O)NCCc1cccnc1 [PT417] : 20

CC(=O)Nc1nc(C)c(-c2ccc(Cl)c(S(=O)(=O)Nc3ccc(F)cc3)c2)s1 [PT420] yielded CC50 of 12

Short answer for CCC(=O)Nc1nc(C)c(-c2ccc(OC)c(S(=O)(=O)Nc3ccc(O)cc3)c2)s1 [PT425] : CC50 was 13.6
